Hey, just so you know, these numbers are from ChEMBL document CHEMBL1909604.

# Target Or System: 5-hydroxytryptamine receptor 1B (Homo sapiens)
# Sequence (P28222 whole entry): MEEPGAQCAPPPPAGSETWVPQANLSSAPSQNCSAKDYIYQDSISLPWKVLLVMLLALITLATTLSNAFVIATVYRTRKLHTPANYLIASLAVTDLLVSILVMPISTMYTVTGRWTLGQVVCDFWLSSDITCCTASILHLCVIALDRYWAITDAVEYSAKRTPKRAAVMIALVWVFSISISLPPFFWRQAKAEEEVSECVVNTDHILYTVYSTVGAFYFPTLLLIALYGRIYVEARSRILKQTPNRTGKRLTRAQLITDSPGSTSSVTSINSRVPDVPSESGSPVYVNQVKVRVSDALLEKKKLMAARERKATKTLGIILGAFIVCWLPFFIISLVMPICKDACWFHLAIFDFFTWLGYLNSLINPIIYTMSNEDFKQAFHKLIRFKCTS
# Test Name: Displacement of [3H]carboxytryptamine from recombinant human 5-HT1B receptor expressed in HEK cells by scintillation counting
Measured Quantity: pKi
Answers are plain numbers, as −log10 of the molar value.

According to the records, this molecule "COc1ccc(NC(=O)c2ccc3c(c2)N(C)C(=O)CN3c2ccc(Cl)c(Cl)c2)cc1N1CCN(C)CC1" displays pKi of 6.92
